# Test details: AUC (0 to infinity) in CD-1 mouse at 60 mg/kg, iv administered as bolus dose in presence of ENT1 inhibitor NBMPR-P
# Format: ADME, organism-based
# Parameters: time infinity, dose 60 mg/kg, route intravenous
# Measurement parameters: plasma
Measurement label: AUC(0-inf) (ng·h/mL)
Give your result in ng·h/mL as a bare value.

Req: Specify measured AUC(0-inf) for Nc1nc(F)nc2c1ncn2[C@@H]1O[C@H](CO)[C@@H](O)[C@@H]1O [FLUDARABINE] .
Resp: 65700

* * *

# Test details: Cmax in CD-1 mouse brain at 0.1 mg/kg, iv administered as bolus dose in absence of ENT1 inhibitor NBMPR-P
# Format: ADME, organism-based
# Design: dose 0.1 mg/kg, route intravenous
Measurement label: Cmax (ng/g)
Lab book: enter the figure in ng/g, no units written.

Req: Dear colleague, please send me the reported Cmax for OC[C@H]1O[C@@H](n2cnc3c(N[C@@H]4CCOC4)ncnc32)[C@H](O)[C@@H]1O [TECADENOSON] when you can.
Resp: 23
